assay-remarks: hESC survival regulators, cell-based (AID 493140);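 also: cells exposed to compounds for four days before counting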
reported-conditions: human embryonic stem cell survival screen; stronger effect = higher value
property-label: survival
Give bare numbers.

Okay, here is my list. What is survival for each of these?
1. O=C(NCCNCC(O)COc1ccc(O)cc1)N1CCOCC1 (stereo unspecified)
2. COc1cccc2c1C(=O)c1c(O)c3c(c(O)c1C2=O)C[C@@](O)(C(C)=O)C[C@@H]3OC1CC(N)C(O)C(C)O1 (stereo partly specified)
3. COc1nc(C)nc(Cl)c1NC1=NCCN1
4. O=C1C(c2c(O)[nH]c3ccccc23)=Nc2ccccc21

1. 3.92
2. 2.17
3. 21
4. 88

###

Kindly state normalised cell number for each of the entries shown.
assay-remarks: differential killing of epithelial or mesenchymal cells, primary screen, imaging, PC-3E GFP, TEM4-18 mCherry, co-culture (AID 1345086);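 also: cells exposed to compound for 72 h before imaging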
reported-conditions: imaging cell counts, measured here: mesenchymal TEM4-18 mCherry cell survival, at 1 µM
Give bare numbers.

Example entries and their recorded answers appear below.
compound=CO[C@H]1/C=C/C[C@@H](C)OC(=O)c2c(O)cc(O)cc2CC(=O)CCC1 obs_value=0.98
compound="CC(C)(O/N=C(\\C(=O)N[C@@H]1C(=O)N2C(C(=O)[O-])=C(C[n+]3ccccc3)CSC12)c1csc(N)n1)C(=O)O (some centres undefined)" obs_value=0.94
compound=CC1=C2[C@H](C=C3CCC[C@@H](C)[C@]3(C)[C@@H]2O)OC1=O obs_value=0.85

Consider now this further compound.
Look at this compound and give its reported normalised cell number. `COC(=O)CNC(=O)c1ccc([C@H](O)c2ccccc2)cn1`
0.87

###

assay-remarks: sensitizers of A549 cells to miR-34 induction, primary screen, imaging, A549 dox-inducible miR-34, nuclei and caspase counts (AID 1347080)
reported-conditions: A549 miR-34 inducible, Hoechst nuclei count, 48 h; measured here: total cells with miR-34 induction; stronger effect = lower value
Would you mind telling me the reported cell count of each entry?

A selection of reference data follows.
molecule=CC(=O)Oc1cc2c(s1)CCN([C@H](C(=O)C1CC1)c1ccccc1F)C2 obs_value=7480
molecule=COc1cc(-c2ccc(N=Nc3ccc4c(S(=O)(=O)O)cc(S(=O)(=O)O)c(N)c4c3O)c(OC)c2)ccc1N=Nc1ccc2c(S(=O)(=O)O)cc(S(=O)(=O)O)c(N)c2c1O obs_value=8930
molecule=CCC(=O)O[C@H](CC(=O)O)C[N+](C)(C)C obs_value=8930
molecule="COc1cc([C@@H]2c3cc4c(cc3C(O[C@@H]3O[C@@H]5CO[C@@H](c6cccs6)OC5[C@H](O)[C@H]3O)C3COC(=O)[C@@H]32)OCO4)cc(OC)c1O (stereo not given in full)" obs_value=3270
molecule="C#C[C@]1(O)CCC2C3CCC4=CC(=O)CC[C@@H]4C3CC[C@@]21C (stereo not given in full)" obs_value=10400

The following molecules each have a reported value; give each one's cell count.
1. O=C(O)Cc1ccc([N+](=O)[O-])cc1
2. C[C@]12CCC(=O)C=C1[C@@H]1C[C@@H]1C1C2CC[C@@]2(C)C1[C@@H]1C[C@@H]1[C@@]21CCC(=O)O1 (stereo not given in full)
3. CCOC(=O)COc1ccc2c(=O)cc(-c3ccccc3)oc2c1
4. CC1(C)C2CC[C@]3(C)C(C(=O)C=C4[C@@H]5C[C@@](C)(C(=O)O)CC[C@]5(C)CC[C@]43C)[C@@]2(C)CC[C@@H]1OC(=O)CCC(=O)O (stereo not given in full)

1. 8560
2. 7990
3. 8170
4. 10800

Given `COc1ccc2nc3cc(Cl)ccc3c(Nc3cc(CN4CCCC4)c(O)c(CN4CCCC4)c3)c2n1` , state its recorded cell count.
2320

###

assay-remarks: sensitizers of A549 cells to miR-34 induction, primary screen, imaging, A549 dox-inducible miR-34, nuclei and caspase counts (AID 1347080)
reported-conditions: A549 miR-34 inducible, Hoechst nuclei count, 48 h; measured here: relative caspase fold change +Dox/-Dox
Residues, ends and D or L forms follow the SMILES beside them.
Consider the following compounds; for each one, report its fold change.
Numbers only.

compound="NC(Cc1c[nH]c2ccccc12)C(=O)O (stereo not drawn)" obs_value=2.24
compound=CC(C)(C)/[N+]([O-])=C/c1ccc(S(=O)(=O)O)cc1S(=O)(=O)O obs_value=1.12
compound=CCC(=O)NS(=O)(=O)c1ccc(-c2c(-c3ccccc3)noc2C)cc1 obs_value=1.74
compound="CC(C)C1CCC(C(=O)N[C@@H](Cc2ccccc2)C(=O)O)CC1 (stereo partly drawn)" obs_value=4.55
compound=CO[C@H]1/C=C/O[C@@]2(C)Oc3c(C)c(O)c4c(O)c(c(C=NN5CCN(C6CCCC6)CC5)c(O)c4c3C2=O)NC(=O)/C(C)=C\C=C\[C@H](C)[C@H](O)[C@@H](C)[C@@H](O)[C@@H](C)[C@H](OC(C)=O)[C@@H]1C obs_value=1.52
compound=Cn1c(=O)c(-c2c(Cl)cccc2Cl)cc2cnc(Nc3ccc(N4CCOCC4)cc3)nc21 obs_value=1.37

Return reported fold change values for all items listed beneath this line.
1. CC(=O)OCC(=O)[C@@]1(O)CCC2C3CCC4=CC(=O)C=C[C@]4(C)[C@@]3(Cl)[C@@H](Cl)C[C@@]21C (stereo partly drawn)
2. CC(C)[C@H](NC(=O)[C@H](CC(=O)O)NC(=O)[C@H](CCCCN)NC(=O)[C@@H](N)CCCN=C(N)N)C(=O)N[C@@H](Cc1ccc(O)cc1)C(=O)O (H-RKDVY-OH)
3. C[C@H]1O[C@@H](O[C@H]2[C@@H](O)C[C@H](O[C@H]3[C@@H](O)C[C@H](O[C@H]4CC[C@@]5(C)[C@H](CC[C@@H]6[C@@H]5C[C@@H](O)[C@]5(C)C(C7=CC(=O)OC7)CC[C@]65O)C4)O[C@@H]3C)O[C@@H]2C)C[C@H](O)[C@@H]1O (stereo partly drawn)
4. CCCCCCCCCCCCC[N+](C)(C)Cc1ccccc1
5. COc1c(N2C[C@@H]3CCCN[C@@H]3C2)c(F)cc2c(=O)c(C(=O)O)cn(C3CC3)c12
6. CC(C)[C@H](CO)Nc1nc(Nc2ccc(C(=O)O)c(Cl)c2)c2ncn(C(C)C)c2n1
7. CC(C)Nc1ncccn1

[1.22, 0.732, 1.15, 1.61, 0.781, 0.706, 0.978]

###

test-target: Calcium-activated potassium channel subunit alpha-1 (Homo sapiens) + Leucine-rich repeat-containing protein 26 (Homo sapiens) (UniProt Q12791+Q2I0M4)
Sequence (Q2I0M4 whole entry, looked up, one chain of several): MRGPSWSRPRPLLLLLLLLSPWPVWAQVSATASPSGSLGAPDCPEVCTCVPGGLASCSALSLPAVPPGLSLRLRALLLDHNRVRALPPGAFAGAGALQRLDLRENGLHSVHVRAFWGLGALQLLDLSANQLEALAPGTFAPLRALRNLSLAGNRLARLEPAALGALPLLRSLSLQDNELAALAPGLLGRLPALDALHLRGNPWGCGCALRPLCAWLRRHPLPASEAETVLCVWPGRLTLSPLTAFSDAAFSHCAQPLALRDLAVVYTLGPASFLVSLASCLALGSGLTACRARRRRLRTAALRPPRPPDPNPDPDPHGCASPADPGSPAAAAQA
assay-remarks: modulators of BK channel variants, profiling panel, selectivity assay, cell-based, U2OS BacMam, thallium flux, beta subunits (AID 1259406);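 also: initial slope of Thallos dye fluorescence rise after thallium is added; log ratio against the mean of 0.3% DMSO vehicle wells on the same plate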
reported-conditions: F380Y/Slo1WT/gamma1, at 30 µM
The source made the active and inactive calls.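 Rule for the calls: active = thallium flux through the channel raised or lowered by more than 3 SD from vehicle-only wells, actives on both sides; inactive = the rest.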 Non-standard residues stand in square brackets, D forms with d. Residues, ends and D or L forms follow the SMILES beside them. pGlu = O=C1CC[C@@H](C(=O)O)N1; Thz = O=C(O)[C@@H]1CSCN1
Bench note: report the call from active, inactive

compound="CC(C)CC(NC(=O)C(COC(C)(C)C)NC(=O)C(Cc1ccc(O)cc1)NC(=O)C(CO)NC(=O)C(Cc1c[nH]c2ccccc12)NC(=O)C(Cc1cnc[nH]1)NC(=O)C1CCC(=O)N1)C(=O)N[C@@H](CCCN=C(N)N)C(=O)N1CCCC1C(=O)NNC(N)=O (some centres not stated)" class_assignment=inactive
compound="CC(c1ccccc1)n1c(SCc2cc(=O)oc3cc(O)ccc23)n[nH]c1=O (configuration not stated)" class_assignment=inactive
compound=COc1ccc2c(OC(C)=O)coc2c1 class_assignment=inactive

Outcome logged for `O=C(Nc1ccc(OC(F)(F)F)cc1)OC1CN(C(c2ccccc2)c2ccccc2)C1` in this assay:
active

What about this compound? `N#Cc1c(F)cccc1NC1CCN(Cc2ccccc2)CC1`
inactive

Try this compound next: CC12CC=C(C#N)C1(C)CC=C2C#N (configuration not stated)
inactive

Can you handle `Cc1ccccc1C=C1N=C(c2ccccc2)OC1=O` next?
inactive

Same lookup for O=C1CC[C@@H](C(=O)N2CSC[C@H]2C(=O)O)N1 ([pGlu]-[Thz]-OH) , please.
inactive

Here is the next compound: `CN1CC(=O)N2[C@H](c3ccc4c(c3)OCO4)c3[nH]c4ccccc4c3C[C@@H]2C1=O`
inactive

// next record `CCOC(=O)c1c(N)n(-c2ccc(Cl)cc2)c2nc3ccccc3nc12`
inactive

Proceed to `C[C@]12CC3CC(N)(C1)C[C@@](C)(C3)C2`
inactive

Try `Cc1cnc(C(=O)NCCc2ccc(S(=O)(=O)NC(=O)NC3CCCCC3)cc2)cn1` next.
inactive

###

assay-remarks: antimalarial activity against Dd2 strain (AID 2302);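 also: 0% = DMSO untreated growth and 100% = chloroquine plus artemisinin killed control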
reported-conditions: P. falciparum Dd2 in RBCs, LDH growth readout, 72 h; at 2 µM; stronger effect = higher value
Field: growth inhibition. Provide a value for each of the compounds that follow.
One number for each entry, in %.

compound="CC(=O)Oc1c(C(=O)C2CCC(C(C)(C)C)CC2)c(OC(C)=O)c2ccccc2c1OC(C)=O (stereo unspecified)" obs_value=96
compound=c1ccc(COc2ccc(Nc3ncnc4cnc(-c5ccc(CNc6cccnc6)o5)cc34)cc2)cc1 obs_value=19
compound=CCCCCCn1c(Sc2ccc(C#N)c([N+](=O)[O-])c2)nnc1-c1ccccc1 obs_value=41
compound=Cc1[nH]c(C)c(-c2ccc(Oc3cccc(C(F)(F)F)c3)cc2)c(=O)c1Br obs_value=97
compound=CC(=O)c1cc(N2CCCC2)ccc1N obs_value=97
compound=CN1CCN(c2ccc(Nc3nccc(-c4c(-c5cccc(NC(=O)c6c(F)cccc6F)c5)nn5ccccc45)n3)cc2)CC1 obs_value=98
compound=Cc1cccc(-c2cccc(CNc3nc(NCCc4ccc(O)cc4)nc(N4CCNCC4)n3)c2)c1 obs_value=-3
compound=Cc1noc(C)c1-c1cccc(CNCc2ccc(-c3cccc(-c4nc5ccc(C(F)(F)F)cc5[nH]4)c3)cc2)c1 obs_value=97
compound=COc1cc(-c2nc(C(C)(C)CN)[nH]c2-c2ccncc2)ccc1Br obs_value=95
compound=CN(C(=O)C(C)(C)Oc1ccc(Cl)cc1)C1CCN(CCCCCNC(=O)/C=C/c2ccc(Cl)c(Cl)c2)CC1 obs_value=26

// for each compound below, give its growth inhibition
1. c1ccc(COc2ccc(Nc3ncnc4cnc(-c5ccc(CN6CCCCC6)o5)cc34)cc2)cc1
2. CC(C)Nc1cc(C(=O)N[C@@H](Cc2ccccc2)[C@H](O)CNC2CCOCC2)c(F)c(N2CCCCS2(=O)=O)c1

1: 13; 2: 98

Provide the reported growth inhibition of each entry below, same order.
1. Cc1[nH]c(C)c(-c2ccc(Cl)cc2)c(=O)c1I
2. CN(c1ccc2c(c1)nc(NCc1ccc(F)cc1)n2C)c1ccnc(Nc2ccc(CS(C)(=O)=O)cc2)n1
3. CCCCCCCCCCS(=O)(=O)N[C@H](COCc1cccc(Oc2ccccc2)c1)COP(=O)(O)OC
4. Cc1[nH]c(C)c(-c2ccc(-c3ccc(F)cc3)cc2)c(=O)c1Cl
5. CCn1c(-c2nonc2N)nc2c(-c3cccc(NC(=O)Nc4cccc(Cl)c4)c3)ncc(OCCCN)c21
6. CC(c1cccc(Nc2nccc(-c3c(-c4cccc(NC(=O)c5c(F)cccc5F)c4)nn4ccccc34)n2)c1)S(C)(=O)=O (stereo unspecified)

[96, 79, -3, 96, 78, 99]

Kindly give each listed record's growth inhibition.
1. O=C(Nc1ccc(CN2CCOCC2)cc1)c1ccc(-c2ccc(Br)cc2)o1
2. O=C(NC1CCCc2ccccc21)[C@@H]1CCCN1C(=O)c1ccc(O)c(-c2ccc(Cl)c(Cl)c2)c1 (stereo partly specified)
3. COc1ccc(C2CCN(CCN3CCC(NC(=O)c4ccc(-c5cccc(C(F)(F)F)c5C(F)(F)F)cc4)CC3)CC2)c(OC)c1

-4
99
61
